Origin of values: PubChem BioAssay (NCI)

test system: HCT-15 colon; experiment: NCI-60 one-dose screen, 48 h (100 = growth as untreated, 0 = no growth, -100 = all killed); conditions: 10 µM unless noted
Compounds without any hit were thinned out: in the full panel of roughly 83,000, 20% have a hit.
measurementKind: growth (%)
Report as a plain number; the unit % is understood.

Worked examples, 2 compounds total:
> print(dat)
                                   compound  valueobserved
1  C[C@H](C(=O)N(CCc1ccc(Cl)c(Cl)c1)Cc1cncs1)[C@@H]1CC[C@H](C[C@H](C)n2cc(CN3CCC(c4ccc(Cl)cc4)CC3)nn2)O1           99.6
2  COc1ccc(Cn2cc(C(=O)N=Nc3c(O)[nH]c4c(C)cccc34)nn2)cc1             68

stdin: So what does the record say about growth for COc1ccc2c(c1)c(-c1nc(-c3c[nH]c4ncccc34)cs1)cn2CCCN1CCOCC1 ?
stdout: 13.7

stdin: Would you mind doing CC(=O)OC(c1ccccc1)C1CCOC1=O (stereo unspecified) as well?
stdout: 97.1

stdin: CC(C)(C)n1cc(-c2ccnc(NCCNS(=O)(=O)c3ccc(O)cc3)c2)c(-c2cccc(O)c2)n1 ?
stdout: 107

stdin: Same for O=C(N/N=C/c1cc(Cl)ccc1O)c1ccccc1Nc1ccnc(C(F)(F)F)c1
stdout: 30.4

stdin: Record: CSc1nc(C)c([N+](=O)[O-])c(N)n1
stdout: 107

stdin: CCOC(=O)C#Cc1c(C(=O)OCC)nnn1Cc1ccc(C(F)(F)F)cc1 , same question.
stdout: -16.9

stdin: Then CN(Cc1ccccc1)c1nc(Cl)c(C2CC(c3ccccc3)=NN2c2ccccc2)s1 (stereo unspecified) ?
stdout: 94.2

stdin: Request: O=C(NNC(=O)c1nc2cc(F)ccc2n2cccc12)c1cnccn1
stdout: 24.3

stdin: Next compound: C=C1C(=O)O[C@H]2[C@H]1CC/C(Cn1cc(CCC)nn1)=C\CC[C@@]1(C)O[C@@H]21
stdout: -1.47

stdin: Try the compound Cc1n[nH]c2ccc(Br)cc2c1=O
stdout: 100

stdin: Request: O=C1Nc2ccccc2/C1=C/c1cccn1C(=O)c1ccc(Cl)s1
stdout: 17.8

stdin: What do you have for CCCn1nc(C(=O)N(C)Cc2ccccc2)c2c1CCC(N1CCc3ccccc31)C2 (stereo unspecified) ?
stdout: 96.3

stdin: Let us now turn to CCO/C=N/C1=C(C#N)C(c2ccc(F)cc2)c2sc3c(F)cccc3c2O1 (stereo unspecified)
stdout: 26
